- Test system: MDA-MB-435
- Assay Details: NCI tumour cell line growth inhibition, 48 h
Experimental Endpoint: TGI (µM)
Give bare numbers, in µM.

The cases that follow already have their TGI on record.
Compound	TGI, µM
COc1ccc2nc3c([N+](=O)[O-])ccc4c3c(c2c1)NCCN4CCO	1.79
O=C(Nc1cccc(-n2ccc3c(NC(=O)c4ccccc4)nccc32)c1)Nc1cc(C(F)(F)F)cc(C(F)(F)F)c1	3.21
COc1ccc(-c2cn[nH]c2-c2cc(OC)c3c(c2)OCO3)cc1	0.0838
CN[C@H]1C=C[C@@H]2/C=C(C)/C=C/[C@@H](C)[C@H]([C@H](C)[C@H](O)[C@@H](C)NC(C)=O)OC(=O)/C=C/C=C(C)\C=C\[C@]2(C)C1	9.14
CCOC(=O)c1cc(-c2cc(OC)c(OC)c([N+](=O)[O-])c2)c([N+](=O)[O-])n1C	4.72
COc1cc(NC(N)=NCCC(C)(C)Oc2ccc(C(F)(F)F)cc2)ncc1C#N	3.17

For each of the compounds below, note its TGI.
1. CN(C)CCCOc1ccc(-c2ccc3ncc4c(c3c2)n(C2CCOCC2)c(=O)n4C)cn1
2. Nc1ncnc2c1nnn2C1C=CC(COS(N)(=O)=O)C1 (centres undefined)
3. C#CCOc1cccc(-c2ncnc3cc(NC(=O)CCl)ccc23)c1

Result:
[11.3, 41.3, 2.92]
